- System: SNB-75
- TEST DETAILS: NCI 60 cell line screen
- Format: cell-based
- PARTICULARS: SNB-75, CNS Cancer; single concentration 10^−5 M
MEASURE NAME: Growth % (%)
Your answer should be a plain number; it is taken to be in %.

Using the record for `N#Cc1c(-c2ccc(Br)cc2)cc(-c2c[nH]c3ccccc23)nc1-c1c[nH]c2ccccc12` , report its Growth %.
91.48

Now consider `COc1cc(OC)cc(-c2cc(-c3c[nH]c4ccccc34)nc(-c3c[nH]c4ccccc34)c2C#N)c1` and answer again.
87.63

Do the same for `N#Cc1c(-c2ccc(O)cc2)cc(-c2c[nH]c3ccccc23)nc1-c1c[nH]c2ccccc12` please
90.85

Ok, now `N#Cc1c(-c2ccc([N+](=O)[O-])cc2)cc(-c2c[nH]c3ccccc23)nc1-c1c[nH]c2ccccc12`
90.31
